// data source = patent US6770740B1

- Test Description: QELS particle size and zeta potential of peptide DNA condensates, Example 6
- Assay type: physicochemical
- Settings: charge ratio 4:1, 50 μg/ml DNA in HBM, 90°; average and SD of three; No particles formed
Readout Label: Particle Size (nm)
Report as a plain number; the unit nm is understood.

Cys-His-Lys-His-Lys-(His)2-Lys-His-Cys (CHKHKHHKHC) [Peptide 16] | 320
Cys-(His-Lys)4-Cys (CHKHKHKHKC) [Peptide 15] | 205

Consider the record given below.
Asked: Param item = Cys-(Lys)4-His-(Lys)3-Cys (CKKKKHKKKC) [Peptide 12] ; retrieve measured Particle Size (nm).
Given back: 87
